protocol summary: Kinetic Parameter k3/k1 for Inhibition of Type 1 5-alpha-reductase
observable: k3/ki
Answer format: value, then unit.

List the reported k3/ki of each compound below.
1. C[C@]12C=CC(=O)NC1CCC1C2CC[C@]2(C)C(C(=O)Nc3ccccc3)CCC12 (some centres undefined)
2. C[C@]12C=CC(=O)NC1CCC1C2CC[C@]2(C)C(C(=O)Nc3cc(C(F)(F)F)ccc3C(F)(F)F)CCC12 (some centres undefined)

3900 M⁻¹ s⁻¹
270000 M⁻¹ s⁻¹

List the reported k3/ki of each compound below.
1. C[C@]12C=CC(=O)NC1CCC1C2CC[C@]2(C)C(C(=O)Nc3ccccc3C(F)(F)F)CCC12 (some centres undefined)
2. C[C@]12C=CC(=O)NC1CCC1C2CC[C@]2(C)C(C(=O)Nc3cccc(-c4ccccc4)c3)CCC12 (some centres undefined)

1: 35000 M⁻¹ s⁻¹; 2: 51000 M⁻¹ s⁻¹

---

tgt: 3-oxo-5-alpha-steroid 4-dehydrogenase 2 (Homo sapiens, UniProt P31213)
protocol summary: Inhibition of recombinant human Steroid 5-alpha-reductase type 2
Could you please report measured IC50 for the items listed next?
Give bare numbers, in pM.

A selection of reference data follows.
• C[C@]12C=CC(=O)NC1CCC1C2CC[C@]2(C)C(C(=O)Nc3cccc4ccccc34)CCC12 (some centres undefined) = 200
• C[C@]12C=CC(=O)NC1CCC1C2CC[C@]2(C)C(C(=O)Nc3cccc(C(F)(F)F)c3)CCC12 (some centres undefined) = 100

Then this molecule:
For 3-oxo-5-alpha-steroid 4-dehydrogenase 2 (Homo sapiens, UniProt P31213), provide IC50 of CN(C(=O)C1CCC2C3CCC4NC(=O)C=C[C@]4(C)C3CC[C@]12C)c1ccccc1 (some centres undefined) please.
24600

---

protocol summary: Kinetic Parameter Ki for Inhibition of Type 1 5-alpha-reductase
Could you please report measured log10(Ki) for the items listed next?
On a log10 scale: recorded Ki, unit nM.

A selection of reference data follows.
- C[C@]12C=CC(=O)NC1CCC1C2CC[C@]2(C)C(C(=O)Nc3cccc(-c4ccccc4)c3)CCC12 (stereo not given in full): 1.38
- C[C@]12C=CC(=O)NC1CCC1C2CC[C@]2(C)C(C(=O)Nc3ccccc3)CCC12 (stereo not given in full): 2.36
- C[C@]12C=CC(=O)NC1CCC1C2CC[C@]2(C)C(C(=O)Nc3ccccc3C(F)(F)F)CCC12 (stereo not given in full): 1.08
- C[C@]12C=CC(=O)NC1CCC1C2CC[C@]2(C)C(C(=O)Nc3cc(C(F)(F)F)ccc3C(F)(F)F)CCC12 (stereo not given in full): 0.38

Then this compound:
// lookup log10(Ki) for C[C@]12C=CC(=O)NC1CCC1C2CC[C@]2(C)C(C(=O)Nc3cccc4ccccc34)CCC12 (stereo not given in full)
1.85

---

protocol summary: Kinetic Parameter Ki for Inhibition of Type-2 5-alpha-reductase
observable: pKi
One number for each entry, as −log10 of the molar value.

A selection of reference data follows.
• C[C@]12C=CC(=O)NC1CCC1C2CC[C@]2(C)C(C(=O)Nc3ccccc3C(F)(F)F)CCC12 (stereo not given in full) = 8.89
• C[C@]12C=CC(=O)NC1CCC1C2CC[C@]2(C)C(C(=O)Nc3cc(C(F)(F)F)ccc3C(F)(F)F)CCC12 (stereo not given in full) = 9.30
• C[C@]12C=CC(=O)NC1CCC1C2CC[C@]2(C)C(C(=O)Nc3cccc4ccccc34)CCC12 (stereo not given in full) = 9.30

List the reported pKi of each molecule below.
1. C[C@]12C=CC(=O)NC1CCC1C2CC[C@]2(C)C(C(=O)Nc3ccccc3)CCC12 (stereo not given in full)
2. C[C@]12C=CC(=O)NC1CCC1C2CC[C@]2(C)C(C(=O)Nc3cccc(-c4ccccc4)c3)CCC12 (stereo not given in full)

8.77
8.85

---

tgt: 3-oxo-5-alpha-steroid 4-dehydrogenase 1 (Homo sapiens, UniProt P18405)
Sequence (P18405 whole entry): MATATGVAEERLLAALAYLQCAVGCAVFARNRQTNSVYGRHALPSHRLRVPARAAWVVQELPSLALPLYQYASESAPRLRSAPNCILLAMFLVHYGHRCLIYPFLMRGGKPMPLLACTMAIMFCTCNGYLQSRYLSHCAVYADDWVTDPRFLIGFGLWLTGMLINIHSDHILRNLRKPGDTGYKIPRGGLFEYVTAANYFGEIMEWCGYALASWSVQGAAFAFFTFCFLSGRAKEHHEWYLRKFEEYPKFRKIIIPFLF
protocol summary: Inhibition of recombinant human Steroid 5-alpha-reductase type I
Threshold check on IC50: strictly below 20 nM is true; on or above 20 nM is false.

Please state whether IC50 is below 20 nM for C[C@]12C=CC(=O)NC1CCC1C2CC[C@]2(C)C(C(=O)N(c3ccccc3)c3ccccc3)CCC12 (stereo partly drawn)
false

Please state whether IC50 is below 20 nM for C[C@]12C=CC(=O)NC1CCC1C2CC[C@]2(C)C(C(=O)Nc3ccccc3-c3ccccc3)CCC12 (stereo partly drawn)
false

Please state whether IC50 is below 20 nM for CCN(C(=O)C1CCC2C3CCC4NC(=O)C=C[C@]4(C)C3CC[C@]12C)c1ccccc1 (stereo partly drawn)
false

Please state whether IC50 is below 20 nM for C[C@]12C=CC(=O)NC1CCC1C2CC[C@]2(C)C(C(=O)N3CCCCc4ccccc43)CCC12 (stereo partly drawn)
false

Please state whether IC50 is below 20 nM for Cc1cccc(C)c1NC(=O)C1CCC2C3CCC4NC(=O)C=C[C@]4(C)C3CC[C@]12C (stereo partly drawn)
true

Please state whether IC50 is below 20 nM for C[C@]12C=CC(=O)NC1CCC1C2CC[C@]2(C)C(C(=O)Nc3cccc(C(F)(F)F)c3)CCC12 (stereo partly drawn)
true

Please state whether IC50 is below 20 nM for CN(C(=O)C1CCC2C3CCC4NC(=O)C=C[C@]4(C)C3CC[C@]12C)c1ccccc1 (stereo partly drawn)
false

Please state whether IC50 is below 20 nM for C[C@]12C=CC(=O)NC1CCC1C2CC[C@]2(C)C(C(=O)Nc3ccc(C(F)(F)F)cc3)CCC12 (stereo partly drawn)
false

Please state whether IC50 is below 20 nM for C[C@]12C=CC(=O)NC1CCC1C2CC[C@]2(C)C(C(=O)Nc3ccccc3Cl)CCC12 (stereo partly drawn)
true

Please state whether IC50 is below 20 nM for C[C@]12C=CC(=O)NC1CCC1C2CC[C@]2(C)C(C(=O)Nc3ccccc3F)CCC12 (stereo partly drawn)
true

Please state whether IC50 is below 20 nM for C[C@]12C=CC(=O)NC1CCC1C2CC[C@]2(C)C(C(=O)Nc3ccc(F)cc3)CCC12 (stereo partly drawn)
false

---

Could you please report measured IC50 for the items listed next?
tgt: 3-oxo-5-alpha-steroid 4-dehydrogenase 2 (Homo sapiens, UniProt P31213)
protocol summary: Inhibition of recombinant human Steroid 5-alpha-reductase type 2

A selection of reference data follows.
- C[C@]12C=CC(=O)NC1CCC1C2CC[C@]2(C)C(C(=O)Nc3ccc(N)cc3)CCC12 (some centres undefined): < 1 nM
- COc1ccccc1NC(=O)C1CCC2C3CCC4NC(=O)C=C[C@]4(C)C3CC[C@]12C (some centres undefined): < 1 nM
- Cc1cccc(C)c1NC(=O)C1CCC2C3CCC4NC(=O)C=C[C@]4(C)C3CC[C@]12C (some centres undefined): < 1 nM
- C[C@]12C=CC(=O)NC1CCC1C2CC[C@]2(C)C(C(=O)Nc3cccc(-c4ccccc4)c3)CCC12 (some centres undefined): < 0.1 nM
- C[C@]12C=CC(=O)NC1CCC1C2CC[C@]2(C)C(C(=O)Nc3cccc(Cl)c3)CCC12 (some centres undefined): 0.1 nM
- C[C@]12C=CC(=O)NC1CCC1C2CC[C@]2(C)C(C(=O)Nc3ccccc3F)CCC12 (some centres undefined): < 0.1 nM
- C[C@]12C=CC(=O)NC1CCC1C2CC[C@]2(C)C(C(=O)Nc3ccc(O)cc3)CCC12 (some centres undefined): < 1 nM
- Cc1cccc(NC(=O)C2CCC3C4CCC5NC(=O)C=C[C@]5(C)C4CC[C@]23C)c1 (some centres undefined): 0.3 nM

Then this compound:
// lookup IC50 for C[C@]12C=CC(=O)NC1CCC1C2CC[C@]2(C)C(C(=O)Nc3cccc(N)c3)CCC12 (some centres undefined)
< 1 nM

---

tgt: 3-oxo-5-alpha-steroid 4-dehydrogenase 2 (Homo sapiens, UniProt P31213)
Sequence (P31213 whole entry): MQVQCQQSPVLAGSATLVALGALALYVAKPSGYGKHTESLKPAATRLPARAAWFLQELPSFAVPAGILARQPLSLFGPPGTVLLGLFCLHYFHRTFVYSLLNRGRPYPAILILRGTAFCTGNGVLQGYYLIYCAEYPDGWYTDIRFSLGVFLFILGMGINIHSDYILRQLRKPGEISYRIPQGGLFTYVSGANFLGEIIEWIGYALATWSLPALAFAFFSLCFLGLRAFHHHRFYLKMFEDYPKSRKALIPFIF
protocol summary: Inhibition of recombinant human Steroid 5-alpha-reductase type 2
pIC50: −log10 of the molar value.
Could you please report measured pIC50 for the items listed next?

* C[C@]12C=CC(=O)NC1CCC1C2CC[C@]2(C)C(C(=O)Nc3ccccc3O)CCC12 (stereo partly drawn) | > 9.00
* C[C@]12C=CC(=O)NC1CCC1C2CC[C@]2(C)C(C(=O)Nc3ccccc3Cl)CCC12 (stereo partly drawn) | > 10.00
* C[C@]12C=CC(=O)NC1CCC1C2CC[C@]2(C)C(C(=O)Nc3cccc(O)c3)CCC12 (stereo partly drawn) | > 9.00

List the reported pIC50 of each molecule below.
1. C[C@]12C=CC(=O)NC1CCC1C2CC[C@]2(C)C(C(=O)Nc3ccccc3)CCC12 (stereo partly drawn)
2. C[C@]12C=CC(=O)NC1CCC1C2CC[C@]2(C)C(C(=O)Nc3ccccc3C(=O)c3ccccc3)CCC12 (stereo partly drawn)
3. C[C@]12C=CC(=O)NC1CCC1C2CC[C@]2(C)C(C(=O)Nc3ccc4ccccc4c3)CCC12 (stereo partly drawn)
4. C[C@]12C=CC(=O)NC1CCC1C2CC[C@]2(C)C(C(=O)Nc3ccccc3C(F)(F)F)CCC12 (stereo partly drawn)

9.70
> 9.00
9.70
> 10.00

List the reported pIC50 of each molecule below.
1. C[C@]12C=CC(=O)NC1CCC1C2CC[C@]2(C)C(C(=O)Nc3cc(C(F)(F)F)ccc3C(F)(F)F)CCC12 (stereo partly drawn)
2. CCN(C(=O)C1CCC2C3CCC4NC(=O)C=C[C@]4(C)C3CC[C@]12C)c1ccccc1 (stereo partly drawn)
3. Cc1ccccc1NC(=O)C1CCC2C3CCC4NC(=O)C=C[C@]4(C)C3CC[C@]12C (stereo partly drawn)
4. C[C@]12C=CC(=O)NC1CCC1C2CC[C@]2(C)C(C(=O)Nc3ccc(Cl)cc3)CCC12 (stereo partly drawn)
5. COc1ccc(NC(=O)C2CCC3C4CCC5NC(=O)C=C[C@]5(C)C4CC[C@]23C)cc1 (stereo partly drawn)

> 10.00
8.10
> 10.00
9.70
> 9.00

// lookup pIC50 for C[C@]12C=CC(=O)NC1CCC1C2CC[C@]2(C)C(C(=O)Nc3ccccc3-c3ccccc3)CCC12 (stereo partly drawn)
> 10.00
